- System Tested: T1, Monomeric hAng-2FD (human, UniProt O15123 282-496)
- T1 construct: also called fibrinogen-like domain of human Ang2; Human Ang-2FD
- T1 sequence: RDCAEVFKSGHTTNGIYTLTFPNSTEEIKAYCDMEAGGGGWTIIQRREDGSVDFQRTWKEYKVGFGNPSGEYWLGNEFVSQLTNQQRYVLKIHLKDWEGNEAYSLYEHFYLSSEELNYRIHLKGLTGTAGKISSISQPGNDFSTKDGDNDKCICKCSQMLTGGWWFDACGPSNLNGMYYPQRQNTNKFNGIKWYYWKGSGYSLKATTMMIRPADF
- Protocol Details: SPR, captured Ab
Known pKd of a selection of binders
Reminder that pKd means the negative base-10 logarithm of the concentration expressed in mol/L.

Below are worked cases with known answers.
H2M750N (antibody, V domains shown) VH: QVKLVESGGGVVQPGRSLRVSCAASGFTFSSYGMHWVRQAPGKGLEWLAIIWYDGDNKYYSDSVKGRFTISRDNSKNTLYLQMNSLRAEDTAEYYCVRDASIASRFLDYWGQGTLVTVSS VL: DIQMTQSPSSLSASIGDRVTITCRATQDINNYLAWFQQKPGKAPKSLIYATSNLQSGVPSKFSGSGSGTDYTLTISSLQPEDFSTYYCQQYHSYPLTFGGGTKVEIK = 8.35
H1M732N (antibody, V domains shown) VH: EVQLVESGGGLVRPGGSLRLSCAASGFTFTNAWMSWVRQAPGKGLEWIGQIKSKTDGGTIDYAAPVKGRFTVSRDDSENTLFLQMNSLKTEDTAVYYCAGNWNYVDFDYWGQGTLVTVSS VL: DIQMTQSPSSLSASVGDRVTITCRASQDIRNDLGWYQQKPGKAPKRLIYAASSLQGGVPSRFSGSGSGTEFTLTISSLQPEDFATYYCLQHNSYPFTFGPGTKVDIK = 8.21

Lab note: next binder to report on.
Given the entry H2M730N (antibody, V domains shown) VH: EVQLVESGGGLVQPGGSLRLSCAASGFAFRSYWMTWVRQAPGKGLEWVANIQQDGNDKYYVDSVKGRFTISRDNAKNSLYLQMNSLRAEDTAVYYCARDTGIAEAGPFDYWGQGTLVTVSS VL: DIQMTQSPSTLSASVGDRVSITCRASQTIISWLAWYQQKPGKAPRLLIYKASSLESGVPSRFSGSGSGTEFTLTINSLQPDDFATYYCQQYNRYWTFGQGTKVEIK , report its measured pKd.
8.69
